Experiment: Stability (half-life) of retinol, free and encapsulated
Format: physicochemical
Details: solid state, Dark
measured attribute: half-life (h)
One number for each entry, in h.

Q: Tell me the measured half-life of `CC1=C(/C=C/C(C)=C/C=C/C(C)=C/CO)C(C)(C)CCC1` , please.
Ans: 63

====

Assay: Encapsulation (entrapment) efficiency
Format: physicochemical
Conditions: compound encapsulated in zein micelles
measured attribute: Encapsulation Efficiency (%)
Numbers only, in %.

{"smiles string": "CCN(CC)c1ccc2nc3c4ccccc4c(=O)cc-3oc2c1", "number": 77}
{"smiles string": "CC1=C(/C=C/C(C)=C/C=C/C(C)=C/CO)C(C)(C)CCC1", "number": 83}
{"smiles string": "COc1cccc2c1C(=O)c1c(O)c3c(c(O)c1C2=O)C[C@@](O)(C(=O)CO)C[C@@H]3O[C@H]1C[C@H](N)[C@H](O)[C@H](C)O1", "number": 92}

Q: Request the reported Encapsulation Efficiency associated with `COc1cc(/C=C/C(=O)CC(=O)/C=C/c2ccc(O)c(OC)c2)ccc1O`
Ans: 95
